# procedure text: yeast display, Sf9 membrane polyspecificity reagent, FACS + sequencing; frameworks hold sequencing errors
reported endpoint: polyreactivity (PSR sort gate)

Look up polyreactivity (PSR sort gate): QVQLVESGGGLVQAGGSLRLSCAASGRTFSQYAMGWYRQAPGKERELVAAISRGGGSTYYADSVKGRFTISRDNAKNTVYLQMNSLKPEDTAVYYCARATYFYYPFGSWGQGTQVTVSS
high polyreactivity

Look up polyreactivity (PSR sort gate): QVQLVDSRGGLVQAGRSLRLSCAASGIIFFAYAMGWYRQAPGKERELVAAISSSGGRTYYADSVKGRFTISRDKAKNTVYLQMNSLKPEDTAVYYCNARWHGSFDYWGQGTQVTVSS
low polyreactivity

Look up polyreactivity (PSR sort gate): QVQLVESGGGLVQAGGSLRLSCAASGFTFGYYAMGWYRQAPGKERELVAAISSRGSGTYYADSVKGRFTMSRDNAKNTVYLQLNSLKPEDTAVYYCARPSALLGYWGQGTQVTVSS
low polyreactivity

Look up polyreactivity (PSR sort gate): QVQLVESGGGLVQAGGSLRLSCAASGFTFGRYAMGWYRQAPGKERELVAAITWSGGTTTYYADSVKGRFTISRDNAKNTVYLQMNSLKPEDTAVYYSAADLYFYIYSYNYWGQGTQVTVSS
low polyreactivity

Look up polyreactivity (PSR sort gate): QDQLVESGGGLVQAGGSLRLSCAASGIIFDDNTLGWYRQAPGKERELVAAISSSGGSTYYADSVKGRFSISRDNAKNTVYLQMNSLKPEDTAVYYCAAAVYYTYPYIVYRNYPEFDYWGQGTQVTVSS
low polyreactivity

Let's switch to this sequence now.
Look up polyreactivity (PSR sort gate): QVQLVESGGGLVQAGGSLRLSCAASGFTYGSNAMGWYRQAPGKERELVATISRRGGRTYYADSVKGRFTISRDNAKNTVYLQMNSLKPEDTAVYYCAADRSRPGYDYWGQGTQVTVSS
high polyreactivity

----------
# procedure text: yeast display, Sf9 membrane polyspecificity reagent, FACS + sequencing; frameworks hold sequencing errors
reported endpoint: polyreactivity (PSR sort gate)

A selection of reference data follows.
Look up polyreactivity (PSR sort gate): QVQLVESGGGLVQAGGSLRLSCAASGSIFSPNAMGWYRQAPGKERQLVAAIRSGGSTYYADSVKGRFTISRDNAKNSVYLQMNSLKPADTAVYYCAADTYTYYYYLARYYYWGQGTQVTVSS
low polyreactivity

Look up polyreactivity (PSR sort gate): QVQLVESGGALVQAGGSLRLSCAASGRTFAVNAMGWYRQAPGKEREFVAAISKRGGSTYYADSVKGRFTISRDNAKNTVYLQMNSLTPEDTAVYYCAADYTKHYWGQGTQVTVSS
high polyreactivity

Look up polyreactivity (PSR sort gate): QVQLVESGGGLVQAGGSLRLSCAASGRIFTYYAMGWYRQVPGKERELVAGISGSGTSTYYADSVKGRFTISRDNAKNTVYLQMNSLKPEDTAVYYCAAIRRQKGLWDYYYWGQGTQVTVSS
low polyreactivity

Look up polyreactivity (PSR sort gate): QVQLVESGGGLVQAGGSLRLSCAASGSTLYSYAMGWYRQAPGKEREFVAAITSDDGSTYYADSVKGRFTISRDNAKNTVYLQMNSLKPEDTAVYYCATAASVEYNYWGQGTQVTVSS
low polyreactivity

Look up polyreactivity (PSR sort gate): QVQLVESGGGLVQAGGSLRLSCAASGNIFNGNAMGWYRQAPGKERELVAAIRGNGGITYYADSVKGRFTISRDNAKNTVYLQMNSLKPEDTAVYYCAVRSAWVYGIGRYYWGQGTQVTVSS
high polyreactivity

Look up polyreactivity (PSR sort gate): QVQLVESGGGLVQAGGSLRLSCAASGSTIHINAMGWYRQAPGKERELVADINWSGGSTYYADSVKGRFTISRDNAKNTVYLQMNSLKPADSAVYYCAADVGVFTYSPYDAGEHDYWGQGSQVTVSS
low polyreactivity

Next:
Look up polyreactivity (PSR sort gate): QVQLVESGGGLVQAGGSLRLSCAASGSIFGLYAMGWYRQAPGKERELVARITRSGGRTYYADSVKGRFTISRDNAKNTVYLQMNSLKPEDTAVYYCNKLLPSYVLPDDYWGQGTQVTVSS
low polyreactivity

Look up polyreactivity (PSR sort gate): QVQLVESGGGLVQAGGSLRLSCAASGRIFPHYAKGWYRQAPGKERELVAAISSGGRTNYADSVKGRFTISRDNAKNTVYIQMNSLKPEDTAVYYYAVDDYVYEMDYWGQGTQVTVSS
high polyreactivity

----------
# procedure text: yeast display, Sf9 membrane polyspecificity reagent, FACS + sequencing; frameworks hold sequencing errors
reported endpoint: polyreactivity (PSR sort gate)

A selection of reference data follows.
Look up polyreactivity (PSR sort gate): QGQLVESGGGLVQARGSLRLSCAASGRIFMTYAMAWYIQAPGKERELVAAIRSPSGTTYYADSVKGRFTISRDNAKNTVYLQMNSLKPEDTAVYYCAAGGKYSSYYWGQGTQVTVSS
high polyreactivity

Look up polyreactivity (PSR sort gate): QVQLVESGGGLVQAGGSLRLSCAASGRTFRYYAMGWYRPAPGKERELVAAITSGGSTYYADSVKGRFTISRDNAKNTVYLQMNSLKPEDTAVYYCNKDFTRTWTRHGDDYWGQGTQVTVSS
high polyreactivity

Look up polyreactivity (PSR sort gate): QVQLVESGGGLVQAGGSLRLSCAASGSIFYGNAMGWYRQAPGKERELVAAISYRGVRTYYADSVKGRFTISRDNAKNTVYLQMNSLKPEDTAVYYCAATQGYRREYDYWGQGTQVTVSS
high polyreactivity

Look up polyreactivity (PSR sort gate): QVQLVESGGGLVQAGGSLRLSCAASGITFWSNSMGWYRQAPGKERELVATITSSGGDNTNYADSVKGRFTISRDNAKNSVYLQMNSLKPEDTAVYYCNKEGQQSYRWRMDYWGQGTQVTVSS
low polyreactivity

Look up polyreactivity (PSR sort gate): QDQLVDSGGGLLQAGGSLRLSCAASGSTLSKYAMGWNRQAPGKERELVAAISQRGGSTYYADSVKGRFTISRDNAKYTVYLQMNSLKPEDTAVSYCNALQRRYGYWGQGTQVTESS
high polyreactivity

Next:
Look up polyreactivity (PSR sort gate): QVQLVESGGGLVQAGGSLRLSCAASGRTFRYNAMGWYREAPGKERELVAAISTRGGSTYYADSVKGRFTISRDNAKNTVYLQMNSLKPEDTAVYYCAVTRRFPGHFEDYYWGQGTQVTVSS
low polyreactivity

Look up polyreactivity (PSR sort gate): QVQLVESGGGLVQAGGSLRLSCAASGSTFTGYAMGWYRQAPGKERELVAAISRSGGSTSYADSVKGRFTISRDNAKNTVYLQMNSLKPEDTAVDYCAAQVQGTTRAKQRGGIGELDYWGQGTQVTVSS
low polyreactivity

----------
# procedure text: yeast display, Sf9 membrane polyspecificity reagent, FACS + sequencing; frameworks hold sequencing errors
reported endpoint: polyreactivity (PSR sort gate)

A selection of reference data follows.
Look up polyreactivity (PSR sort gate): QVQLVESGGGLVQAGGSLRLSCAASGRTFQFYPMGWYRQAPGKERELVAAIDLRGGSTYYADSVKGRFTISRDNAKNTVYLQMNSLKPEDTAVYYCNADRYTGRDGEQSLDYWGQGTQVTVSS
low polyreactivity

Look up polyreactivity (PSR sort gate): QVQLVESGGGLVQAGGSLRFSCDASGRTFRYYAMGWYRQAPGKERELVAAIRSGGTTYYADSVKGRFTISRDNAKNTVYFQMNSLKPEDTAVYYCAAKVPWKYSRVYRVGFDYWGQGTQVTVSS
high polyreactivity

Look up polyreactivity (PSR sort gate): QVQLVESGGGLVQAGGSLRLSCAASGRTFIRYAMGWYRQAPGKESELVAAISSRGGRTHYADSVKGRFTISRDNAKNTVYLQMNSLKPEDTAVYYCAADLTYVTVPGASYDYWGQCTQVTVSS
low polyreactivity

Look up polyreactivity (PSR sort gate): QVQLVESGRGLVQAGGSLRLSCAASGRIFKRYTMGWYRPAPGKETELVAGITFSGGSTYYADSVKGRFTISRDNAKNTVYLQMNSLKREDTAVYYCAADDAYYTYQYDYWGQGTQVTVSS
low polyreactivity

Look up polyreactivity (PSR sort gate): QVQLVESGGGLVQAGGSLRLSCAASGSIFTSYVMGWYRQAPGKERELVAAINSGGRTYYADSVKGRFTISRDNAKNTVYLQMNSLKPEDTAVYYCATDLLYYQYYSEYDYWGQGTQVTVSS
high polyreactivity

Next:
Look up polyreactivity (PSR sort gate): QVQLVESGGGLVQAGGSLRLSCAASGYIFYYNAMGWYRQAPGKERELVAVISRTGASTYYADSVKGRFTISRDNAKNTVYLQMNSLKPEDTAVYYCAVRYETVDGNWRYFYWGQGTQVTVSS
high polyreactivity

Look up polyreactivity (PSR sort gate): QVQLVESGGGLVQAGGSLRLSCAASGINFDDYVMGWYRQAPGKERELFAAISSSGGSTYYADSVKGRFTISRDNAKNTVYLQMNSLKPEDTAVYYCAADYGSYGVVRAVSIEYEYWGQGTKVTVSS
low polyreactivity

Look up polyreactivity (PSR sort gate): QVQLVESGGGLVQAGGSLRLSCAASGSTFEGYAMGWYRQAPGKEMELVAAISSSGGTTNYADSVKGRFTISRDNAKNTVYLQMNSLKPEDTAVYYCAARKYAKYFYHYDYWGQGTQVTVSS
low polyreactivity

Look up polyreactivity (PSR sort gate): QVQLVESGGGLVQAGGSHRLSCAASGSILEIYAMGWYRQAPGKEREFVASISWDVSSTYYADSVKGRFTISRDNAKNTVYLQMYSLKPEDPAVYYCATSLVWGLYDWYYDLSAAFDYWGQGTQVTVSS
low polyreactivity

Look up polyreactivity (PSR sort gate): QVQLVESGGGLVQAGGSHRLSCAASGSNAMGWYRQAHGKERELVAVITGGGSTHYADSVKGRYTISRDNAKNTVYLLMNSLKAEVTAVYYCAAVYWHSRGKFADIAVDYWGQGTQVTVSS
low polyreactivity

Look up polyreactivity (PSR sort gate): QVQLVESGGGLVQAGGSLRLSCAASGRIFWWYAMGWYRQAPGKERELVAVIDDSGGITYYADSVKGRFTISRDNAKHTVYLQMNSLKPEDTAVYYCARNVNAQKVLGGFDSWGQGTQVTVSS
low polyreactivity

FYI, the data here is from the nanobody polyreactivity screen of Harvey et al. (2022).
